- assay.explanation: qHTS assay to identify small molecule antagonists of the thyroid receptor (TR) signaling pathway (AID 743065); also: nearly all actives have a fitted effect of over 55% in size
- reported.conditions: GH3.TRE-Luc, T3-stimulated luciferase inhibition, 23.5 h; series mostly up to 70.3 µM
Results filed as inconclusive are left out. Calls of active or inactive are those of the source. Calls follow the shape of the dose curve; as a rule, active = well fitted inhibition curve with a large enough effect in the repeat runs; inconclusive = weak or mixed curves; inactive = no such curve, though single readings can be large or run the other way.
Classes used: active, inactive

compound	classification
Cc1ncc([N+](=O)[O-])n1CC(O)CCl (stereo not drawn)	inactive
OC[C@@H](O)[C@H](O)[C@@H](O)[C@@H](O)CO	inactive
CC(C)CCCC(C)CC=O (stereo not drawn)	inactive
CCCC(C)CC (stereo not drawn)	inactive
Nc1cc(C(=O)O)ccc1Cl	inactive
Nc1cc(S(=O)(=O)O)ccc1S(=O)(=O)O	inactive
O=C(O)CCNC(=O)c1ccccc1	inactive
CCCCCCCCCCCCCCCCI	inactive
CC(=O)OC(C(=O)c1ccccc1)c1ccccc1 (stereo not drawn)	inactive
O=C(CN1CCN(Cc2ccc3c(c2)OCO3)CC1)N1c2ccccc2Sc2ccccc21	active
CC(=O)/C=C/c1ccco1	inactive
CN(C)CCCNCCC#N	inactive
CC(=O)Nc1ccc(C)cc1	inactive
CCC(=O)c1ccc(O)cc1	inactive
CCNC(=O)NCCCOc1cccc(CN2CCCCC2)c1	inactive
CC(=O)OC(C)(C)Cc1ccccc1	inactive
CC(=O)OCC(=O)[C@@]1(O)[C@H](OC(C)=O)C[C@H]2[C@@H]3CCC4=CC(=O)C=C[C@]4(C)[C@@]3(F)[C@@H](O)C[C@@]21C	inactive
CC(Cl)COP(=O)(OCC(C)Cl)OCC(C)Cl (stereo not drawn)	inactive
CCCCCCCCOC(C)=O	inactive
CCCCOC(=O)C(C)OC(=O)CCC (stereo not drawn)	inactive
C[Si]1(C)N[Si](C)(C)N[Si](C)(C)N1	inactive
C[C@H]1O[C@H](O[C@H]2[C@H](O)[C@@H](O)[C@@H](O[C@H]3[C@H](O)[C@@H](O)[C@H](O)O[C@@H]3CO)O[C@@H]2CO)[C@H](O)[C@@H](O)[C@@H]1N[C@H]1C=C(CO)[C@@H](O)[C@H](O)[C@H]1O	inactive
F[Si-2](F)(F)(F)(F)F	inactive
COc1cc2c3cc1Oc1cc(ccc1O)C[C@@H]1c4c(cc(OC)c(O)c4Oc4ccc(cc4)C[C@@H]3N(C)CC2)CC[N+]1(C)C	inactive
CNCc1ccccc1	inactive
COCCOCCOCCOC	inactive
NC(=O)NNC(N)=O	inactive
CCOC(=O)CCc1ccccc1	inactive
CCCCCCCCCCCCCCCC(=O)NCCO	inactive
CCCCC/C=C/CC(=O)OC	inactive
C=C(C)C(=O)OC1CC(C)CC(C)(C)C1 (stereo not drawn)	inactive
COc1cc([N+](=O)[O-])ccc1N	inactive
O=S1(=O)CCCC1	inactive
C=CC(C)(O)CC/C=C(\C)CC (stereo not drawn)	inactive
OCCCCCCCl	inactive
CCc1nccnc1C	inactive
C=CCOc1c(Br)cc(Br)cc1Br	inactive
CCS(=O)(=O)CCn1c([N+](=O)[O-])cnc1C	inactive
Cc1nc([N+](=O)[O-])cn1-c1ccc([N+](=O)[O-])cc1	inactive
Cc1cccc(Nc2ccncc2S(=O)(=O)NC(=O)NC(C)C)c1	inactive
C=C(C)C(=O)OCCCCCCOC(=O)C(=C)C	inactive
CC(=O)c1ccc2c(c1)CCCC2	inactive
Cc1ccccc1N1CCN(CCc2nnc3n2CCCC3)CC1	inactive
O=C(/C=C/c1ccccc1)NCCO	inactive
COc1ccc(/C=N/NC(=O)c2ccncc2)cc1OC	inactive
CC(C)COC(=O)COc1ccc(Cl)cc1Cl	inactive
O=S(=O)(O)SSS(=O)(=O)O	inactive
CC(C)COC(=O)CC(C(=O)OCC(C)C)S(=O)(=O)O (stereo not drawn)	inactive
CN(C1CCCCC1)S(=O)(=O)c1ccccc1N	inactive
C=CCOCC(O)CCl (stereo not drawn)	inactive
CCCCCCCCCCCCCC(=O)OC	inactive
c1ccc(CNc2ncnc3nc[nH]c23)cc1	inactive
CC(=O)OC(C)c1ccccc1 (stereo not drawn)	inactive
